experiment: Viability qHTS for spleen associated tyrosine kinase inhibitor (SYKi) drug resistant MV4-11 cells (AID 1963824); conditions: SYKi-resistant MV4-11 viability, CellTiter-Glo, 72 h; series mostly up to 45 µM; also: nearly all actives have a fitted effect of over 35% in size
Results filed as inconclusive are left out. Active and inactive are the calls of the source. Calls follow the shape of the dose curve; as a rule, active = well fitted cell-killing curve with a large enough effect; inconclusive = small, poorly fitted or top-dose-only effect, or effect the other way; inactive = no such curve, though single readings can be large or run the other way.
Labels: active, inactive

> print(dat)
                                    molecule  class.label
 1                  Clc1ccccc1CN1CCc2sccc2C1       active
 2                       CC(C)=CCC/C(C)=C/CO     inactive
 3  COc1cc2nc(N3CCC(N4CCCCC4)CC3)nc(NC3CCCCCC3)c2cc1OC       active
 4  CN(CCCNC(=O)c1ccc2nc3c(c(Cl)c2c1)CCCC3)Cc1ccccc1       active
 5  CCN1CCN(C(=O)N[C@@H](C(=O)N[C@@H]2C(=O)N3C(C(=O)O)=C(CSc4nnnn4C)CS[C@H]23)c2ccc(O)cc2)C(=O)C1=O     inactive
 6   O=C1NC(=NCc2cccs2)S/C1=C/c1ccc2ncccc2c1       active
 7    N[C@@H](CCNCc1ccc(Cl)cc1)C(=O)N1CCCCC1     inactive
 8  CCn1c(-c2nonc2N)nc2c(C#CC(C)(C)O)ncc(OC[C@H]3CCCNC3)c21       active
 9  CCOc1ccc(Cc2cc([C@@H]3O[C@H](CO)[C@@H](O)[C@H](O)[C@H]3O)ccc2Cl)cc1       active
10  CCC(C)/C=C(C)/C=C/C1=CC2=C(Cl)C(=O)C(C)(OC(C)=O)C(=O)C2(O)C(OC)O1 (stereo not given)       active

----------
assay: Viability qHTS for spleen associated tyrosine kinase inhibitor (SYKi) naive MV4-11 cells (AID 1963823); details: MV4-11 AML viability, CellTiter-Glo luminescence, 72 h; series mostly up to 45 µM; also: nearly all actives have a fitted effect of over 40% in size
Records with an inconclusive call do not appear. Active and inactive are the calls of the source. Calls come from the whole dose curve; as a rule, active = well fitted cell-killing curve with a large enough effect; inconclusive = small, poorly fitted or top-dose-only effect, or effect the other way; inactive = no such curve, though single readings can be large or run the other way.
Labels: active, inactive

COMPOUND	CLASS LABEL
COc1cc(C(CO)CO[C@@H]2O[C@H](CO)[C@@H](O)[C@H](O)[C@H]2O)ccc1O (some centres undefined)	inactive
COc1cc2ncnc(Nc3ccc(F)c(Cl)c3)c2cc1OCCCN1CCOCC1	active
O=Nc1c2[nH]c3ccccc3nc-2c2ccccc12	active
C=C1CC[C@@H]2[C@](C)(CO[C@@H]3O[C@H](CO)[C@@H](O)[C@H](O)[C@H]3O)[C@H](O)CC[C@@]2(C)[C@@H]1C/C=C1/C(=O)OC[C@H]1O	inactive
Cc1nc(C(=O)NCC(=O)O)c(O)c2ccc(Oc3ccccc3)cc12	inactive
COc1cc(CCc2cc(NC(=O)c3ccc(N4C[C@@H](C)N[C@@H](C)C4)cc3)n[nH]2)cc(OC)c1	active
O=C(O[C@H]1[C@@H]2C=CO[C@@H](O[C@@H]3O[C@H](CO)[C@@H](O)[C@H](O)[C@H]3O)[C@@H]2[C@@]2(CO)O[C@@H]12)c1ccccc1	inactive
CCC1(C)CC(=O)NC1=O (centres undefined)	inactive
CCOC(=N)c1nc2ccc3ncnc(Nc4cc(F)c(F)cc4Cl)c3c2s1	active
CCc1c(C)nc2c(-c3cnn(-c4cc(CO)ccn4)c3)c[nH]n2c1=O	inactive
CC(NC(=O)CC(=O)O)c1nc2ccccc2c(=O)[nH]1 (centres undefined)	inactive
CC/C=C\CCO[C@@H]1O[C@H](CO[C@@H]2OC[C@H](O)[C@H](O)[C@H]2O)[C@@H](O)[C@H](O)[C@H]1O	inactive
CN1c2ccccc2C(=O)N2CCC3c4ccccc4NC3C21 (centres undefined)	active
CC1CCC2(NC1)OC1C(=O)C3C4CCC5CC(O[C@@H]6O[C@H](CO)[C@@H](O)[C@H](O)[C@H]6O[C@@H]6O[C@@H](C)[C@H](O)[C@@H](O)[C@H]6O)CCC5(C)C4CCC3(C)C1C2C (some centres undefined)	inactive
CCCCCCCCCCCCCCCCCC(=O)OCC(O)CO (centres undefined)	inactive
CCN(CC)CCOc1ccc2c(c1)C(=O)c1cc(OCCN(CC)CC)ccc1-2	active
Nc1ccc(S(N)(=O)=O)cc1	inactive
CC(C)c1cccc(C(C)C)c1NC(=O)Nc1ccc(Sc2ccc([N+](=O)[O-])cc2)cc1	active
O=C1NC(=O)C(c2cn(-c3ccccc3)nc2-c2ccc(F)cc2)N1 (centres undefined)	inactive
COc1ccc(-c2cnc3ccc(NCc4ccc(S(N)(=O)=O)cc4)nn23)cc1OC	active
CC(=O)N(O)CCCCCNC(=O)CCC(=O)N(O)CCCCCNC(=O)CCC(=O)N(O)CCCCCN	active
C=CC(C)(CCC=C(C)C)O[C@@H]1O[C@H](CO)[C@@H](O)[C@H](O)[C@H]1O (some centres undefined)	inactive
Cn1c(=O)c2c(ncn2C)n(C)c1=O	inactive
COc1c2c(c(C)c3c1C(=O)OC3)O[C@@]1(C)C[C@@H](O)[C@]34O[C@](OC)(CC[C@]3(C)[C@H]1C2)OC4(C)C	inactive
CCOC(=O)C(C)Oc1cccc2c(=O)n(CC(=O)Nc3ccc4c(c3)OCCO4)ccc12 (centres undefined)	active
Nc1ncnc2c1ncn2[C@@H]1O[C@H](CO)[C@@H](O)[C@@H]1O	inactive
CC(=O)O[C@@H]1[C@@H](O)[C@H](C)O[C@@H](O[C@H]2[C@@H]3C=CO[C@@H](O[C@@H]4O[C@H](CO)[C@@H](O)[C@H](O)[C@H]4O)[C@@H]3[C@@]3(CO)O[C@@H]23)[C@@H]1OC(=O)/C=C/c1ccccc1	inactive
c1cc(OCCN2CCCCC2)cc(-c2n[nH]c3ccc(-c4ncn[nH]4)cc23)c1	active
COC(=O)C1=COC(O[C@@H]2O[C@H](CO[C@@H]3O[C@H](COC(=O)/C=C\c4ccc(O)cc4)[C@@H](O)[C@H](O)[C@H]3O)[C@@H](O)[C@H](O)[C@H]2O)C2C(CO)=CCC12 (some centres undefined)	inactive
C/C=C1\[C@H](O[C@@H]2O[C@H](CO)[C@@H](O)[C@H](O)[C@H]2O)OC=C(C(=O)OC)[C@H]1CC(=O)OC	inactive
C/C=C/C=C/[C@@H]1O[C@](O)([C@H](CC)C(=O)NC/C=C/C=C(\C)[C@@H](OC)[C@@H](C)C2OC(/C=C/C=C/C=C(\C)C(=O)c3c(O)cc[nH]c3=O)[C@H](O)[C@@H]2O)[C@H](O)[C@H](O)C1(C)C (some centres undefined)	inactive
COc1cc(C(=O)NC2CCN(C)CC2)c(F)cc1Nc1ncc2c(n1)N(C1CCCC1)CC(F)(F)C(=O)N2C	active
O=C1NC(=O)C(c2cn3c4c(cccc24)CCC3)C1c1c[nH]c2ccccc12 (centres undefined)	active
O=C(CCCCCCC(=O)N/N=C/c1ccc(N(c2ccccc2)c2ccccc2)cc1)NO	active
